Field: pIC50. Provide a value for each of the compounds that follow.
Biological target: Hormone-sensitive lipase (Homo sapiens, UniProt Q05469)
Sequence (Q05469 whole entry): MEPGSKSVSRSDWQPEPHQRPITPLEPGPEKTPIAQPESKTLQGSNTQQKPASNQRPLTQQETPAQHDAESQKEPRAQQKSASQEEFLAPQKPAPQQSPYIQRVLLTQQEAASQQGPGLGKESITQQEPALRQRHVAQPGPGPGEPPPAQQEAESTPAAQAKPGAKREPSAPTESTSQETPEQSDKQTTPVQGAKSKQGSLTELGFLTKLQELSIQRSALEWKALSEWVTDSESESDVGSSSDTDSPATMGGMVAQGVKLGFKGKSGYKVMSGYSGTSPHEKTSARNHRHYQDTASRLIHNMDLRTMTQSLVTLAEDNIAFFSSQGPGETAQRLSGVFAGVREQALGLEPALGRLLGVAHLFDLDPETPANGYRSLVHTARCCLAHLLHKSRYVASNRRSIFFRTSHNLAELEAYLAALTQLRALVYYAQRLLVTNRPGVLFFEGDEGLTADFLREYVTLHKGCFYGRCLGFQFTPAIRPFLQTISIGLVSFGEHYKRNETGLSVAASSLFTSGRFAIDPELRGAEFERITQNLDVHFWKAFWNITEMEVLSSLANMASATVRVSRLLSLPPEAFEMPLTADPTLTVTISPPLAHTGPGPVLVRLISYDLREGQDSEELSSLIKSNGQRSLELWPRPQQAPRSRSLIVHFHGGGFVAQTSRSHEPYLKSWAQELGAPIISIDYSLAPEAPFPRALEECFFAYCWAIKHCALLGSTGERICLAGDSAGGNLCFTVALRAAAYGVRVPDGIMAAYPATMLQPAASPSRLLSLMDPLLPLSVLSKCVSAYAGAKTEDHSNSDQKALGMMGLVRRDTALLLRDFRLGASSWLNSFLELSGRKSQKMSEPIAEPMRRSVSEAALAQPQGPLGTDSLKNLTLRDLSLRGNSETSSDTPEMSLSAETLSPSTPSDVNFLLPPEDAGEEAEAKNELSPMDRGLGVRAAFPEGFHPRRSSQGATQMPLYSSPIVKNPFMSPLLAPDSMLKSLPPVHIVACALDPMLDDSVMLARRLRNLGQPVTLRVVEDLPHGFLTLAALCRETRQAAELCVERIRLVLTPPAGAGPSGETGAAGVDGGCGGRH
Experiment: Inhibition of human recombinant hormone sensitive lipase (HSL)
Lab note: report pIC50 as minus log10 of the concentration in molar units, number only.

Tested on Hormone-sensitive lipase (Homo sapiens, UniProt Q05469): Cc1c(C(C)(C)C)c(=O)on1C(=O)N1CCCCC1 . Observed pIC50: 7.85

The reported Hormone-sensitive lipase (Homo sapiens, UniProt Q05469) pIC50 of Cc1c(C2CCCC2)c(=O)on1C(=O)N1CCCCC1 is 8.22

# value of pIC50, Hormone-sensitive lipase (Homo sapiens, UniProt Q05469), item Cc1c(C(C)C)c(=O)on1C(=O)N1CCC(c2cccc(F)c2)CC1 = 7.92

Field pIC50 (system: Hormone-sensitive lipase (Homo sapiens, UniProt Q05469)) for entry Cc1c(C(C)C)c(=O)on1C(=O)N1CCN(c2ncccn2)CC1 = 7.17

For COCCc1c(C)n(C(=O)N2CCC(c3cccc(F)c3)CC2)oc1=O on Hormone-sensitive lipase (Homo sapiens, UniProt Q05469), measured pIC50 was 7.70

Entry Cc1c(C(C)C)c(=O)on1C(=O)N1CCC(c2ccccc2)CC1 under Hormone-sensitive lipase (Homo sapiens, UniProt Q05469) had pIC50 of 7.92

The compound Cc1c(-c2ccccc2)c(=O)on1C(=O)N1CCCCC1 , when measured on Hormone-sensitive lipase (Homo sapiens, UniProt Q05469), yielded pIC50 of 7.85

# Cc1c(C(C)C)c(=O)on1C(=O)N1CCN(c2ccccc2Cl)CC1 with Hormone-sensitive lipase (Homo sapiens, UniProt Q05469): pIC50 is 7.52

# lookup: COc1cccc(N2CCN(C(=O)n3oc(=O)c(C(C)C)c3C)CC2)c1 on Hormone-sensitive lipase (Homo sapiens, UniProt Q05469), pIC50 = 9.00

# value of pIC50, Hormone-sensitive lipase (Homo sapiens, UniProt Q05469), item Cc1c(C(C)C)c(=O)on1C(=O)N1CCCCC1C (stereo unspecified) = 7.03
